# experimentNotes: Population pharmacokinetic analysis
# Assay type: in vivo, human
# conditionDetails: human, plasma, oral
quantityName: Vd/F (L)
Give the quantity in L, number only.

Query string: Need Vd/F, item Cc1nc(-c2ccc(OCC(C)C)c(C#N)c2)sc1C(=O)O
Result string: 32.8

These measurements were taken from paper PMC9796681.
